- ASSAY_NAME: AUC in rat at 5 umole/kg, iv
- Assay type: ADME, organism-based
- TEST_SETTINGS: plasma
ATTRIBUTE_MEASURED: AUC
Units required after the number.

Give the measured AUC for `CC(C)(N)C(=O)N[C@H](COCc1ccccc1)c1nnnn1CCOC(=O)NCCCCO` 0.401 µM·h
